Numbers sourced from patent US20250145594A1.

Reported EC50 is given for each of the following molecules.
# Tested on: ATF4 luciferase reporter in HEK293T cells
# ASSAY SUMMARY: ATF4-Luc assay (in vitro model of VWMD)
# Format: cell-based, human
# STATED CONDITIONS: Homo sapiens, HEK-293T, 7 h, HEK293T cells carrying the ATF4 luciferase reporter, 1 μg/mL tunicamycin, One Glo luminescence
PARAMETER: EC50

COc1ccc2nn(C34CC(NC(=O)[C@H]5C[C@@H](O)c6cc(Cl)c(F)cc6O5)(C3)C4)cc2n1 = < 10 nM
O=C(NC12CC(n3cc(-c4ccc(OC(F)(F)F)cn4)cn3)(C1)C2)[C@@H]1C[C@H](O)c2cc(C(F)(F)F)ccc2O1 = < 10 nM
O=C(NC12CC(n3cc(-c4ccc(OC(F)F)nc4)cn3)(C1)C2)[C@H]1C[C@@H](O)c2cc(Cl)ccc2O1 = < 10 nM
O=C(NC12CC(n3cc(C(=O)N4CC(COC(F)(F)F)C4)cn3)(C1)C2)[C@H]1C[C@@H](O)c2cc(Cl)ccc2O1 = < 10 nM
O=C(NC12CC(n3cc(C[C@H]4C[C@H](OC(F)(F)F)C4)cn3)(C1)C2)[C@H]1C[C@@H](O)c2cc(Cl)c(F)cc2O1 = 10 to 50 nM
O=C(NC12CC(n3cc(CCCOC(F)(F)F)cn3)(C1)C2)[C@H]1CC(O)c2cc(Cl)ccc2O1 (stereo in doubt) = < 10 nM
O=C(NC12CC(n3cc(C(=S)N4CC[C@H](OC(F)(F)F)C4)cn3)(C1)C2)[C@H]1C[C@@H](O)c2cc(Cl)ccc2O1 = < 10 nM
O=C(NC12CC(n3cc(C(=O)N4CC(COC(F)(F)F)C4)cn3)(C1)C2)[C@H]1C[C@@H](O)c2cc(F)c(F)cc2O1 = 50 to 250 nM
O=C(NC12CC(c3ccnc(-n4cc(C(F)(F)F)cn4)c3)(C1)C2)[C@H]1C[C@@H](O)c2cc(Cl)ccc2O1 = 10 to 50 nM
C[C@@H](COC(F)(F)F)Oc1cnn(C23CC(NC(=O)[C@H]4C[C@@H](O)c5cc(Cl)ccc5O4)(C2)C3)c1 = < 10 nM
O=C(NC12CC(n3cc(C(=O)N4CCC(C(F)(F)F)C4)cn3)(C1)C2)[C@H]1C[C@@H](O)c2cc(Cl)ccc2O1 (stereo partly shown) = 10 to 50 nM
O=C(CO[C@H]1C[C@@H](OC(F)(F)F)C1)NC12CC(NC(=O)[C@@H]3C[C@@H](O)c4cc(Cl)c(Cl)cc4O3)(C1)C2 = < 10 nM
O=C(NC12CC(n3cc(OCCOC(F)(F)F)cn3)(C1)C2)[C@H]1C[C@@H](O)c2cc(Cl)ccc2O1 = < 10 nM
